Where these numbers come from: patent US20250333531A1

TARGET: T1, human CD37 (human, UniProt P11049 1-281)
T1 construct: whole, on cells; also called CD37 antigen
T1 sequence (looked up): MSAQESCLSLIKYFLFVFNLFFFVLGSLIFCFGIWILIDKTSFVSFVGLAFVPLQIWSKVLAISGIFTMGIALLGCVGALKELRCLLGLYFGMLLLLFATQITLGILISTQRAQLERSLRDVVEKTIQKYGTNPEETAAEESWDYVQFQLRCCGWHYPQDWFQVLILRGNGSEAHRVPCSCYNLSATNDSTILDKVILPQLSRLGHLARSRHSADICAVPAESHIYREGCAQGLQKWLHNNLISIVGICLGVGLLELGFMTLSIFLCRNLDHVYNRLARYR
ASSAY_INFO: competitive radioligand binding on Ramos cells against 177Lu-NNV009 (2.7 nM), gamma counting
MEASURED_METRIC: pKi
The scale used: pKi is minus the common logarithm of the concentration in molar units.

AH02871 (antibody, human IgG1, kappa, V domains shown, Humanized IgG1 kappa; also called NNV026; NNV020 #1) VH: QVQLVQSGAEVVKPGASVKVSCKASGYSFTDYNMYWVKQAPGQRLEWMGYIDPYNGDTTYNQKFKGRVTITRDTSASTAYMELSSLRSEDTAVYYCARSPYGHYAMDYWGQGTLVTVSS VL: DIQMTQSPSSLSASVGDRVTITCKASQDVSTAVDWYQQKPGKAPKLLINWASTRHTGVPSRFSGSGSGTDYTLTISSMQPEDFATYYCRQHYSTPFTFGQGTKLEIKR | 9.27

pKi lookup needed for AH02895 (antibody, human IgG1, kappa, V domains shown, Humanized IgG1 kappa; also called NNV020 #6) VH: QIQLVQSGAEVVKPGASVKVSCKASGYSFTDYNMYWVKQAPGQRLEWMGYIDPYNGDTTYNQKFKGRATITRDTSASTAYIELSSLRSEDTAVYYCARSPYGHYAMDYWGQGTLVTVSS VL: DIQMTQSPSSLSASVGDRVTITCKASQDVSTAVDWYQQKPGKAPKLLINWASTRHTGVPSRFSGSGSGTDYTLTISSMQPEDFATYYCRQHYSTPFTFGQGTKLEIKR , thanks.
9.48

Quick one: pKi for AH02879 (antibody, human IgG1, V domains shown, Full-length human IgG1 kappa; constant domains from NNV003; also called NNV020 #4) VH: QIQLVQSGAEVVKPGASVKVSCKASGYSFTDYNMYWVKQAPGQRLEWIGYIDPYNGDTTYNQKFKGRATLTRDTSASTAYMELSSLRSEDTAVYYCARSPYGHYAMDYWGQGTLVTVSS VL: DIQMTQSPSSLSTSVGDRVTITCKASQDVSTAVDWYQQKPGKSPKLLINWASTRHTGVPSRFSGSGSGTDYTLTISSMQPEDFATYYCRQHYSTPFTFGQGTKLEIKR ?
9.36

Any idea what its pKi is? The binder is AH02875 (antibody, human IgG1, V domains shown, Full-length human IgG1 kappa; also called NNV020 #2) VH: QIQLVQSGAELKKPGASVKVSCKASGYSFTDYNMYWVRQAPGQRLEWMGYIDPYNGDTTYNQKFKGRATITRDTSASTAYIELSSLRSEDTAVYYCARSPYGHYAMDYWGQGTLVTVSS VL: DIQMTQSPSSLSASVGDRVTITCKASQDVSTAVDWYQQKPGKSPKLLINWASTRHTGVPSRFSGSGSGTDYTLTISSMQPEDFATYYCRQHYSTPFTFGQGTKLEIKR
9.28

Could you tell me which pKi is on file for AH02886 (antibody, human IgG1, kappa, V domains shown, Humanized IgG1 kappa; also called NNV027; NNV020 #5) VH: QVQLVQSGAELKKPGASVKVSCKASGYSFTDYNMYWVKQAPGQRLEWMGYIDPYNGDTTYNQKFKGRVTLTVDTSASTAYMELSSLRSEDTAVYYCARSPYGHYAMDYWGQGTLVTVSS VL: DIQMTQSPSSLSTSVGDRVTITCKASQDVSTAVDWYQQKPGKAPKLLINWASTRHTGVPSRFSGSGSGTDYTLTISSLQPEDFATYYCRQHYSTPFTFGQGTKLEIKR ?
9.27

Which measured pKi value corresponds to AH02877 (antibody, human IgG1, V domains shown, Full-length human IgG1 kappa; constant domains from NNV003; also called NNV020 #3) VH: QVQLVQSGAEVVKPGASVKVSCKASGYSFTDYNMYWVKQAPGQRLEWMGYIDPYNGDTTYNQKFKGRATLTVDTSASTAYIELSSLRSEDTAVYYCARSPYGHYAMDYWGQGTLVTVSS VL: DIQMTQSPSSLSASVGDRVTITCKASQDVSTAVDWYQQKPGKSPKLLINWASTRHTGVPSRFSGSGSGTDYTLTISSLQPEDFATYYCRQHYSTPFTFGQGTKLEIKR ?
9.37
